Entries annotated with measured MIC
# System: Staphylococcus aureus
# method.description: Antibacterial activity against Staphylococcus aureus assessed as growth inhibition by microdilution broth susceptibility assay
# Assay type: functional
property.label: MIC (µg/mL)

structure=Cc1c(-c2nn3c(-c4ccccc4)nnc3s2)[se]c2ncnc(Nc3ccc(Cl)cc3)c12 property_label=MIC measured_number=50
structure=Cc1c(-c2nn3c(-c4ccc([N+](=O)[O-])cc4)nnc3s2)[se]c2ncnc(Nc3ccc(F)c(Cl)c3)c12 property_label=MIC measured_number=100
structure=COc1ccc(-c2nnc3sc(-c4[se]c5ncnc(Nc6ccc(Cl)cc6)c5c4C)nn23)cc1 property_label=MIC measured_number=12.5
structure=Cc1ccc(-c2nnc3sc(-c4[se]c5ncnc(Nc6ccc(Cl)cc6)c5c4C)nn23)cc1 property_label=MIC measured_number=25
structure=Cc1c(-c2nn3c(-c4ccc(O)cc4)nnc3s2)[se]c2ncnc(Nc3ccc(F)c(Cl)c3)c12 property_label=MIC measured_number=3.12
